Data provenance: PubChem BioAssay (NCI)

system: MOLT-4 leukemia; assay: NCI tumour cell line growth inhibition, 48 h
Items are presented alongside their recorded TGI.

The following compounds have reported results that may help.
CO/N=C(/C)c1cccc(Nc2cc(-n3nnc4ccccc43)nc3ccccc23)c1 = > 100 µM
COc1cc(C(=O)N2CCN(C=O)C2=S)cc(OC)c1OC = 73.8 µM
CCCNC(=O)NNC(=O)c1c[nH]c2nc(C)ccc2c1=O = > 100 µM
CCCCOC(=O)CNC(=O)OC/C=C/C#CC#C/C=C/COC(=O)NCC(=O)OCCCC = > 100 µM
Nc1ccc2c(c1)C(=O)N1CCC[C@H]1C(=O)N2 = > 100 µM
NC(=S)N/N=C/C(=O)O = > 100 µM
CCOC(=O)c1ccc(NC(=O)Oc2ccc3c(C)cc(=O)oc3c2)cc1 = 58 µM
Cc1c2n(c(=O)[nH]c1=O)C1OC(CO)C(O2)C1O (configuration not stated) = > 100 µM

Lab note: measured TGI of CN(C)c1ccc(/C=c2/c3ccccc3n3c2c2c([n+]3C)CCCC2)cc1 was 1.59 µM

Lab note: measured TGI of Brc1ccc2[nH]cc(-c3csc(-c4c[nH]c5ccccc45)n3)c2c1 was 6.18 µM

Lab note: measured TGI of c1ccc(N=C(N2CCCC2)N(CCN2CCCC2)c2ccccc2)cc1 was > 100 µM
